Test system: Setaria faberi (SETFA)
Test: Post-emergence herbicidal glasshouse test on Setaria faberi
Format: in vivo
Conditions: post-emergence; 1000 g/h; evaluated after 13 days
reported.metric: POST Application SETFA herbicidal damage (five point scale)

| compound | data.value |
| --- | --- |
| Cn1ncc(-c2ccc(S(C)(=O)=O)c(O)c2Cl)c(O)c1=O | 1 (1=0-19% damage) |
| O=c1c(O)c(-c2ccc(C(F)(F)F)cc2C(F)(F)F)cnn1C(F)F | 1 (1=0-19% damage) |
| Cn1ncc(-c2ccccc2[N+](=O)[O-])c(O)c1=O | 1 (1=0-19% damage) |
| Cn1ncc(-c2ccc(COCC(F)(F)F)cc2S(C)(=O)=O)c(O)c1=O | 2 (2=20-39% damage) |
| Cn1ncc(-c2c(F)cnc(F)c2F)c(O)c1=O | 1 (1=0-19% damage) |
| Cn1ncc(-c2ccc(C(F)(F)F)nc2S(C)(=O)=O)c(O)c1=O | 5 (5=80-100% damage) |
| C=Cc1ccccc1-c1c(C(F)(F)F)ccn(-c2cnn(C)c(=O)c2O)c1=O | 3 (3=40-59% damage) |
| Cn1ncc(-n2ccc(C(F)(F)F)c(-c3cccc(Cl)c3Cl)c2=O)c(O)c1=O | 2 (2=20-39% damage) |
| Cn1ncc(-c2cc(F)ccc2Cl)c(O)c1=O | 1 (1=0-19% damage) |
| Cn1ncc(-c2ccc(S(C)(=O)=O)cc2S(C)(=O)=O)c(O)c1=O | 5 (5=80-100% damage) |
| Cn1ncc(-n2ccc(C(F)(F)F)c(-c3ccccc3C(F)(F)F)c2=O)c(O)c1=O | 5 (5=80-100% damage) |
| Cn1ncc(-c2ccc(S(C)(=O)=O)c(Cl)c2Cl)c(O)c1=O | 4 (4=60-79% damage) |
| CCCC[S+]([O-])c1ccccc1-c1cnn(C)c(=O)c1O (stereo not shown) | 1 (1=0-19% damage) |

----------
System: Alopecurus myosuroides (ALOMY)
Assay: Post-emergence herbicidal glasshouse test on Alopecurus myosuroides
Assay type: in vivo
Settings: post-emergence; 1000 g/h; evaluated after 13 days
reported.metric: POST Application ALOMY herbicidal damage (five point scale)

| structure.as.smiles | data.value |
| --- | --- |
| Cc1ccc(S(=O)(=O)Oc2c(-c3ccc(C(F)(F)F)cc3S(C)(=O)=O)cnn(C)c2=O)cc1 | 5 (5=80-100% damage) |
| CC(C)Oc1nn(C)c(=O)c(O)c1-c1ccc(C(F)(F)F)cc1S(C)(=O)=O | 5 (5=80-100% damage) |
| Cc1c(-c2cnn(C(F)F)c(=O)c2O)ccc(S(C)(=O)=O)c1C1=NOCC1 | 4 (4=60-79% damage) |
| COCCOCc1nc(C(F)(F)F)ccc1-c1cnn(C)c(=O)c1O | 4 (4=60-79% damage) |
| Cn1ncc(-c2ccc(C(F)(F)F)nc2N2CCOCC2)c(O)c1=O | 3 (3=40-59% damage) |
| C=CCn1ncc(-c2ccccc2S(C)(=O)=O)c(O)c1=O | 5 (5=80-100% damage) |
| Cn1ncc(-c2ccc(C(F)(F)F)cc2C(F)(F)F)c(O)c1=O | 2 (2=20-39% damage) |
| Cn1ncc(-n2ccc(C(F)(F)F)c(-c3cccc(OC(F)(F)F)c3)c2=O)c(O)c1=O | 4 (4=60-79% damage) |
| Cn1ncc(-c2ccc(Cl)c(Cl)c2Cl)c(O)c1=O | 1 (1=0-19% damage) |
| Cn1ncc(-c2ccccc2Cl)c(O)c1=O | 1 (1=0-19% damage) |
| C=CCn1c(C(F)(F)F)ccc(-c2cnn(C)c(=O)c2O)c1=O | 4 (4=60-79% damage) |
| Cc1nc(C(F)(F)F)ccc1-c1cnn(C)c(=O)c1O | 2 (2=20-39% damage) |

----------
Recorded PRE Application IPOHE herbicidal damage (five point scale) values for a group of compounds are listed next.
Test system: Ipomoea hederacea (IPOHE)
Assay: Pre-emergence herbicidal glasshouse test on Ipomoea hederacea
Type: in vivo
Settings: pre-emergence; 1000 g/h; evaluated after 13 days
reported.metric: PRE Application IPOHE herbicidal damage (five point scale)

| structure.as.smiles | data.value |
| --- | --- |
| Cn1ncc(-c2ccc(S(=O)(=O)N3CCOCC3)cc2S(C)(=O)=O)c(O)c1=O | 4 (4=60-79% damage) |
| CCS(=O)(=O)c1ccccc1-c1cnn(C)c(=O)c1O | 1 (1=0-19% damage) |
| Cn1ncc(-n2cccc(-c3ccc(C(F)(F)F)cc3)c2=O)c(O)c1=O | 1 (1=0-19% damage) |

----------
Test system: Ipomoea hederacea (IPOHE)
Experiment: Pre-emergence herbicidal glasshouse test on Ipomoea hederacea
Type: in vivo
Details: pre-emergence; 1000 g/h; evaluated after 13 days
reported.metric: PRE Application IPOHE herbicidal damage (five point scale)

| molecule | target.system | data.value |
| --- | --- | --- |
| COc1ccc(Cn2ncc(-c3ccc(Cl)cc3S(C)(=O)=O)c(O)c2=O)cc1 [Compound 2.008] | Ipomoea hederacea (IPOHE) | 3 (3=40-59% damage) |
| Cc1cc(-c2cnn(C)c(=O)c2O)c(C)c2c1S(=O)(=O)CCC21OCCO1 [Compound 1.031] | Ipomoea hederacea (IPOHE) | 1 (1=0-19% damage) |
| Cn1ncc(-c2ccc(F)cc2[S+](C)[O-])c(O)c1=O (stereo not drawn) [Compound 1.057] | Ipomoea hederacea (IPOHE) | 2 (2=20-39% damage) |
| Cn1ncc(-n2ccc(C(F)(F)F)c(N3CCOCC3)c2=O)c(O)c1=O [Compound 1.026] | Ipomoea hederacea (IPOHE) | 5 (5=80-100% damage) |
| COCn1ncc(-c2ccccc2S(C)(=O)=O)c(O)c1=O [Compound 1.144] | Ipomoea hederacea (IPOHE) | 4 (4=60-79% damage) |
| Cc1c(-c2cnn(C3CCCC3)c(=O)c2O)ccc(S(C)(=O)=O)c1C1=NOCC1 [Compound 1.007] | Ipomoea hederacea (IPOHE) | 2 (2=20-39% damage) |
| Cn1ncc(-c2ccc(Cl)cc2S(C)(=O)=O)c(O)c1=O [Compound 1.061] | Ipomoea hederacea (IPOHE) | 4 (4=60-79% damage) |
| CCOc1cccc(-c2c(C(F)(F)F)ccn(-c3cnn(C)c(=O)c3O)c2=O)c1 [Compound 7.016] | Ipomoea hederacea (IPOHE) | 1 (1=0-19% damage) |
| Cc1ccc(Cl)c(-c2cnn(C)c(=O)c2O)c1 [Compound 1.101] | Ipomoea hederacea (IPOHE) | 1 (1=0-19% damage) |
| Cn1ncc(-n2cc(N3CCOCC3)c(C(F)(F)F)cc2=O)c(O)c1=O [Compound 1.025] | Ipomoea hederacea (IPOHE) | 1 (1=0-19% damage) |
| Cn1ncc(-c2ccc(Cl)cc2Cl)c(O)c1=O [Compound 1.077] | Ipomoea hederacea (IPOHE) | 1 (1=0-19% damage) |
| CCn1ncc(-c2ccc(C(F)(F)F)cc2S(C)(=O)=O)c(O)c1=O [Compound 2.016] | Ipomoea hederacea (IPOHE) | 5 (5=80-100% damage) |
| Cn1ncc(-c2cc(F)ccc2Cl)c(O)c1=O [Compound 1.086] | Ipomoea hederacea (IPOHE) | 1 (1=0-19% damage) |
| Cn1ncc(-c2cc3cc(F)cnc3n(-c3ccsc3)c2=O)c(O)c1=O [Compound 1.074] | Ipomoea hederacea (IPOHE) | 1 (1=0-19% damage) |
| Cn1ncc(-c2ccc(Cl)cc2C(F)(F)F)c(O)c1=O [Compound 1.113] | Ipomoea hederacea (IPOHE) | 2 (2=20-39% damage) |
| CCCC[S+]([O-])c1ccccc1-c1cnn(C)c(=O)c1O (stereo not drawn) [Compound 1.047] | Ipomoea hederacea (IPOHE) | 1 (1=0-19% damage) |
| COc1ccc(-c2c(C(F)(F)F)ccn(-c3cnn(C)c(=O)c3O)c2=O)cc1 [Compound 7.033] | Ipomoea hederacea (IPOHE) | 4 (4=60-79% damage) |
| Cc1ccc(S(=O)(=O)Oc2c(-c3ccc(C(F)(F)F)cc3S(C)(=O)=O)cnn(C)c2=O)cc1 [Compound 3.006] | Ipomoea hederacea (IPOHE) | 4 (4=60-79% damage) |

----------
System: Amaranthus retoflexus (AMARE)
Experiment: Pre-emergence herbicidal glasshouse test on Amaranthus retoflexus
Format: in vivo
Settings: pre-emergence; 1000 g/h; evaluated after 13 days
reported.metric: PRE Application AMARE herbicidal damage (five point scale)

| structure.as.smiles | data.value |
| --- | --- |
| Cn1ncc(-n2ccc(C(F)(F)F)c(N3CCOCC3)c2=O)c(O)c1=O | 5 (5=80-100% damage) |
| CSc1ccn(-c2cnn(C)c(=O)c2O)c(=O)c1 | 5 (5=80-100% damage) |
| CCn1ncc(-c2ccc(Cl)cc2S(C)(=O)=O)c(O)c1=O | 5 (5=80-100% damage) |
| COCn1ncc(-c2ccc(Cl)cc2S(C)(=O)=O)c(O)c1=O | 5 (5=80-100% damage) |
| CCn1ncc(-c2ccc(C(F)(F)F)nc2S(C)(=O)=O)c(O)c1=O | 5 (5=80-100% damage) |
| CCn1ncc(-c2c(Cl)ccc(Cl)c2Cl)c(O)c1=O | 1 (1=0-19% damage) |
| Cn1ncc(-n2ccc(C(F)(F)F)c(-c3ccc([N+](=O)[O-])cc3)c2=O)c(O)c1=O | 5 (5=80-100% damage) |
| Cc1cc(Cl)ccc1-c1cnn(C)c(=O)c1O | 1 (1=0-19% damage) |
| Cn1ncc(-c2ccc(C(F)(F)F)nc2S(=O)(=O)N2CCOCC2)c(O)c1=O | 5 (5=80-100% damage) |
| CCCOc1nn(C)c(=O)c(O)c1-c1ccc(C(F)(F)F)cc1S(C)(=O)=O | 5 (5=80-100% damage) |
| Cn1ncc(-n2ccc(C(F)(F)F)c(-c3ccccc3C(F)(F)F)c2=O)c(O)c1=O | 5 (5=80-100% damage) |
| CCOc1nn(C)c(=O)c(O)c1-c1ccc(C(F)(F)F)cc1S(C)(=O)=O | 5 (5=80-100% damage) |
| CC(C)n1ncc(-c2ccc(C(F)(F)F)cc2S(C)(=O)=O)c(O)c1=O | 5 (5=80-100% damage) |

Data credit: patent US9693556B2
